// provenance: patent US12473289B2

molecular target: Delta-5-Desaturase (D5D) (Homo sapiens (Human)); test: In vitro measurement of Delta-5-Desaturase inhibitory activity using DGLA-CoA and Arachidonyl-CoA mass spectrometric assays; details: membrane preparations of D5D-overexpressing HEK293 6E cells; averaged over at least two independent runs
Parameter: IC50 (nM)

Some solved cases for reference:
Compound	Quantitative Result
O=c1c(-c2cnn(CC(F)(F)C(F)(F)F)c2)c(C(F)(F)F)nc2cnc(Cl)cn12 [Example 39-35]	13.4
COc1ccn2c(=O)c(-c3ccc(OC[C@H]4CC4(F)F)cc3)c(C(F)(F)F)nc2c1 [Example 1-83]	5.7

I. COc1ccn2c(=O)c(-c3cnn(CCCC(F)(F)F)c3)c(C(F)F)nc2c1 [Example 1-16]
II. CNc1ccn2c(=O)c(-c3ccc(OCC(F)(F)F)cc3)c(C(F)(F)F)nc2c1 [Example 1-29]
Incoming: // pick larger IC50 from pair: I vs II Reply briefly: the label of your chosen item.
Outgoing: I
(I: 383 nM, II: 7 nM)

----------
molecular target: Delta-5-Desaturase (D5D) (Homo sapiens (Human), UniProt O60427); experiment: In vitro measurement of Delta-5-Desaturase inhibitory activity using DGLA-CoA and Arachidonyl-CoA mass spectrometric assays; conditions: membrane preparations of D5D-overexpressing HEK293 6E cells; averaged over at least two independent runs
Sequence (O60427 whole entry, species assumed): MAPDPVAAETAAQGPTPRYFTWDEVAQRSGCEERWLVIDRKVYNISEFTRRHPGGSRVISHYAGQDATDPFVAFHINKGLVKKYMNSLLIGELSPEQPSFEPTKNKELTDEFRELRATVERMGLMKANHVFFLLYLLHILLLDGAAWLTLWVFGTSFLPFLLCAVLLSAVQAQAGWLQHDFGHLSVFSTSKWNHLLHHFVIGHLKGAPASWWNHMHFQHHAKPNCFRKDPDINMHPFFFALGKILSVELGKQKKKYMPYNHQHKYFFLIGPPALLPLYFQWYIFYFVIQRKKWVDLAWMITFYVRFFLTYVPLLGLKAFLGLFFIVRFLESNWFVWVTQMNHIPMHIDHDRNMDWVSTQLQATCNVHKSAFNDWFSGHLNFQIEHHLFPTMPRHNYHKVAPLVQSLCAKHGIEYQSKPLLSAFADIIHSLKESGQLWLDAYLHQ
pIC50: −log10 of the molar value.
Parameter: pIC50

Compound	pIC50
O=c1c(-c2cnn(CC(F)(F)C(F)(F)F)c2)c(C(F)(F)F)nc2ccc(C3CC3)cn12 [Example 39-21]	6.96

A. COc1cnn2c(=O)c(-c3cnn(CC(F)(F)C(F)(F)F)c3)c(C(F)(F)F)nc2c1 [Example 34]
B. O=C(O)c1ccn2c(=O)c(-c3cnn(CC(F)(F)C(F)(F)F)c3)c(C(F)(F)F)nc2c1 [Example 1-21]
C. O=c1c(-c2ccc(OCC(F)(F)F)cc2)c(C(F)(F)F)nc2cc(Cl)ccn12 [Example 2-7]
Incoming: Hey, quick one: sort these by pIC50, largest value first please. Response field: labels, in requested order.
Outgoing: C, A, B
(C: 8.39, A: 6.93, B: 5.47)

----------
target: Delta-5-Desaturase (D5D) (Homo sapiens (Human)); experiment: In vitro measurement of Delta-5-Desaturase inhibitory activity using DGLA-CoA and Arachidonyl-CoA mass spectrometric assays; assay type: biochemical; details: membrane preparations of D5D-overexpressing HEK293 6E cells; averaged over at least two independent runs
Parameter: IC50 (nM)

Some solved cases for reference:
Molecule	Assayed Target	IC50 / nM
O=c1c(-c2ccc(OCC(F)(F)F)cc2)c(C(F)(F)F)nc2cc(C3CNC3)ccn12	Delta-5-Desaturase (D5D) (Homo sapiens (Human))	2940
CCNC(=O)c1ccn2c(=O)c(-c3ccc(OCC(F)(F)F)cc3)c(C(F)(F)F)nc2c1	Delta-5-Desaturase (D5D) (Homo sapiens (Human))	685

P. CNc1ccn2c(=O)c(-c3ccc(OCC(F)(F)F)cc3)c(C(F)(F)F)nc2n1
Q. Cc1ccc2nc(C(F)(F)F)c(-c3cnn(CC(F)(F)C(F)(F)F)c3)c(=O)n2c1
R. COc1ccn2c(=O)c(-c3ccc(OCCF)cc3)c(C(F)(F)F)nc2c1
S. COc1ccn2c(=O)c(-c3cnn(C[C@H]4CC4(F)F)c3)c(C(F)(F)F)nc2c1
T. CC1(c2ccn3c(=O)c(-c4ccc(OCC(F)(F)F)cc4)c(C(F)(F)F)nc3c2)CCO1 (centres unmarked)
Incoming: Hey, quick one: sort these by IC50, largest value first please. Response field: labels, in requested order.
Outgoing: T, P, R, S, Q
(T: 553 nM, P: 40.9 nM, R: 26.1 nM, S: 18.2 nM, Q: 1.7 nM)

----------
molecular target: Delta-5-Desaturase (D5D) (Mus musculus (Mouse)); test: In vivo measurement of Delta-5-Desaturase inhibitory activity (plasma AA/DGLA ratio in DIO mice); details: single oral dose 30 mg/kg, read-out: Average % D5D Inhibition expressed as Plasma Endogenous AA/DGLA Ratio
Sequence (Q920L1 whole entry): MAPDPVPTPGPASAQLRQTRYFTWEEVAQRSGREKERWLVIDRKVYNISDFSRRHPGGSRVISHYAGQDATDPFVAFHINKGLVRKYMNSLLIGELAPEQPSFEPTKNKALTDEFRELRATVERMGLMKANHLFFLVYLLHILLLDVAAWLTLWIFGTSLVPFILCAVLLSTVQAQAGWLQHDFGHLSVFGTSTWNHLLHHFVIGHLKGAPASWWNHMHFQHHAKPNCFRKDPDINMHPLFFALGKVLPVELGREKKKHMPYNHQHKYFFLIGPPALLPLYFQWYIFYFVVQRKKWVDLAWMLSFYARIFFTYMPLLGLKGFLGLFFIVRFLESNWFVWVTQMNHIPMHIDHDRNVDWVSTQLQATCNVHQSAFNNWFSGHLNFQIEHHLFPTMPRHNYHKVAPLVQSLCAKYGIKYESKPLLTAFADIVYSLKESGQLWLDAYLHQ
Parameter: inhibition in vivo at 30 mg/kg (%)

COc1ccn2c(=O)c(-c3ccc(OCC(F)F)cc3F)c(C(F)(F)F)nc2c1 63
COc1ccn2c(=O)c(-c3ccc(OCC(F)(F)F)cc3)c(OC)nc2c1 57
COc1ccn2c(=O)c(-c3ccc(OC(C)(C)C#N)cc3)c(C(F)(F)F)nc2c1 70
COc1ccn2c(=O)c(-c3cnn(CCCC(F)(F)F)c3)c(C(F)(F)F)nc2c1 77

----------
target: Delta-5-Desaturase (D5D) (Homo sapiens (Human), UniProt O60427); test: In vitro measurement of Delta-5-Desaturase inhibitory activity using DGLA-CoA and Arachidonyl-CoA mass spectrometric assays; assay type: biochemical; details: membrane preparations of D5D-overexpressing HEK293 6E cells; averaged over at least two independent runs
Parameter: IC50 (µM)

Some solved cases for reference:
COc1cc2nc(C(F)(F)F)c(-c3cnn(C[C@H]4CC4(F)F)c3)c(=O)n2cc1F 0.0317
Cc1cnn2c(=O)c(-c3ccc(OCC(F)(F)F)cc3)c(C(F)(F)F)nc2c1 0.105
COc1ccn2c(=O)c(-c3nc(OCC(F)(F)F)cs3)c(C(F)(F)F)nc2c1 2.98

I. CCc1nc2cc(OC)ccn2c(=O)c1-c1cnn(CC(F)(F)C(F)(F)F)c1
II. COc1ccn2c(=O)c(-c3cc4ccccc4o3)c(C(F)(F)F)nc2c1
III. COc1nc2nc(C(F)(F)F)c(-c3cnn(CC(F)(F)C(F)(F)F)c3)c(=O)n2cc1F
IV. Cc1ccn2c(=O)c(-c3ccc(OCC(F)(F)F)cc3)c(C(F)(F)F)nc2c1
V. COc1ccn2c(=O)c(-c3ccc(O[C@H](C)C#N)cc3)c(C(F)(F)F)nc2n1
Incoming: Arrange items by their IC50 values in increasing order. Response field: labels, in requested order.
Outgoing: IV, V, I, II, III
(IV: 0.0027 µM, V: 0.0235 µM, I: 0.0539 µM, II: 0.0852 µM, III: 0.168 µM)

----------
target: Delta-5-Desaturase (D5D) (Homo sapiens (Human)); experiment: In vitro measurement of Delta-5-Desaturase inhibitory activity using DGLA-CoA and Arachidonyl-CoA mass spectrometric assays; conditions: membrane preparations of D5D-overexpressing HEK293 6E cells; averaged over at least two independent runs
pIC50: −log10 of the molar value.
Parameter: pIC50

Some solved cases for reference:
Compound	Assayed Target	pIC50
COc1ccn2c(=O)c(-c3ccc(OC(F)(F)F)cc3)c(C(F)(F)F)nc2n1	Delta-5-Desaturase (D5D) (Homo sapiens (Human))	7.24
COc1ccn2c(=O)c(-c3cnn(CC4CC4(F)F)c3)c(C(F)(F)F)nc2c1 (racemic)	Delta-5-Desaturase (D5D) (Homo sapiens (Human))	7.94
CN(C)c1ccn2c(=O)c(-c3ccc(OCC(F)(F)F)cc3)c(C(F)(F)F)nc2c1	Delta-5-Desaturase (D5D) (Homo sapiens (Human))	7.36
Cc1cnn2c(=O)c(-c3cnn(CC4CC(F)(F)C4)c3)c(C(F)(F)F)nc2c1	Delta-5-Desaturase (D5D) (Homo sapiens (Human))	6.38

I. COc1ccn2c(=O)c(-c3ccc(OCC(F)(F)F)cc3C(F)(F)F)c(C(F)(F)F)nc2c1
II. Nc1ccn2c(=O)c(-c3ccc(OCC(F)(F)F)cc3)c(C(F)(F)F)nc2n1
III. [2H]C([2H])([2H])Oc1ccn2c(=O)c(-c3ccc(OCCF)cc3)c(C(F)(F)F)nc2n1
Incoming: Hey, quick one: sort these by pIC50, largest value first please. Response field: labels, in requested order.
Outgoing: II, III, I

----------
target: Delta-5-Desaturase (D5D) (Homo sapiens (Human)); assay: In vitro measurement of Delta-5-Desaturase inhibitory activity using DGLA-CoA and Arachidonyl-CoA mass spectrometric assays; conditions: membrane preparations of D5D-overexpressing HEK293 6E cells; averaged over at least two independent runs
Parameter: IC50 (nM)

Some solved cases for reference:
Compound	Unit Abbrev	IC50
[2H]C([2H])([2H])Oc1ccn2c(=O)c(-c3ccc(OCC(F)(F)F)nc3)c(C(F)(F)F)nc2c1 [Example 1-64]	nM	21.5
O=c1c(-c2cnn(CC(F)(F)C(F)(F)F)c2)c(C(F)(F)F)nc2cc(OCF)ccn12 [Example 45]	nM	10.1
COc1ccn2c(=O)c(-c3cnn(CCC(F)(F)F)c3)c(C(F)(F)F)nc2n1 [Example 2-4]	nM	57.4
CCOc1nc2cc(OC)ccn2c(=O)c1-c1cnn(CC(F)(F)C(F)(F)F)c1 [Example 41-4]	nM	22.3
[2H]C([2H])([2H])Oc1ccn2c(=O)c(-c3cnn(CC(F)(F)C(F)(F)F)c3)c(C(F)(F)F)nc2n1 [Example 3-2]	nM	34.2
O=c1c(-c2cnn(CC(F)(F)C(F)(F)F)c2)c(C(F)(F)F)nc2cc(O)cnn12 [Example 44]	nM	1810
COc1ccn2c(=O)c(-c3cnc(OCC(F)(F)F)nc3)c(C(F)(F)F)nc2n1 [Example 39-13]	nM	248
COc1ccn2c(=O)c(-c3cnn(CCC(F)(F)F)c3)c(C(F)F)nc2c1 [Example 1-14]	nM	22.9
COc1ccn2c(=O)c(-c3ccc(OCC(F)(F)F)cc3)c(C(F)(F)F)nc2c1 [Example 1-44]	nM	3.4
CC(=O)c1ccn2c(=O)c(-c3ccc(OCC(F)(F)F)cc3)c(C(F)(F)F)nc2c1 [Example 1-25]	nM	6.4

1. COc1ccn2c(=O)c(-c3ccc(OCC#N)cc3)c(C(F)(F)F)nc2c1 [Example 21]
2. O=c1ccn2c(=O)c(-c3ccc(OCCF)cc3)c(C(F)(F)F)nc2[nH]1 [Example 1-56]
Incoming: // pick larger IC50 from pair: 1 vs 2 Reply briefly: the label of your chosen item.
Outgoing: 2
